protein stability index by entry:
# protocolDescription: protein stability index of a GFP-peptide fusion (GPS, HEK-293T) (PSI 1-6); higher = more stable;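 note: 24-mer peptide tiles fused after GFP, lentivirally expressed, FACS-sorted into six equal bins by GFP/DsRed ratio, decoded by Illumina sequencing, PSI is the read-weighted mean bin number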
# runConditions: treatment: MLN4924 1 uM, 8 h; c terminus: a fixed tail appended
reportedMetric: protein stability index

INSERT INTO assay_data (sequencecontent, valuereported) VALUES
  ('SGADFHKKDKCGRTPLHYAAANCH [ANKRD44]', 3.32),
  ('SSELTDSLRTLKPEGNILRDRFKS [NOP53]', 4.49),
  ('TNITEVDAASVYTLPAGADFLMCY [CASP6]', 2.18),
  ('LSSQCFSNISRPRDNPMCLKCDLQ [M1AP]', 3.27),
  ('KENAAAPSPVRAPAPSPAKEERKT [PALM]', 5.53),
  ('NLRYGFTKEVMNKYKVHGKEILRT [PPEF2]', 2.57),
  ('RVQAALVWERPARSALWCLGLNAA [RETREG3]', 2.38),
  ('EKMKKRKMSNSFHGIRPPQLEQPE [RHOBTB3]', 4.77),
  ('TVKLLVEEKADVLARGPLNQTALH [RIPK4]', 3.4),
  ('RDTRDYAPPPRDYTYRDYGHSSSR [RBMX]', 3.65),
  ('LSLLVHNVSVMHKSLDNMPNDEHW [FBXO33]', 2.4),
  ('GRRYEAVKWMVVFAIGVCTGLVGL [CLCN6]', 3.2),
  ('FGHHHQRAWIPSENIQDITVNIHR [ZMYND11]', 2.69),
  ('AAQNGDESSTRLLLEKNASVNEVD [RIPK4]', 5.48),
  ('SLQERKQALYEYARRRFTERRAQE [AUP1]', 4.44),
  ('ALPIATAFTEYVHAYFRGHSPSCL [FCHO1]', 2.78),
  ('FMRTDPVCQKLLLDAMNYHLMPFR [KLHL14]', 2.28),
  ('WGVVSHSFPATLETQEQDVDLVQK [MMP1]', 4.73),
  ('EILTLLQGVHQGAGFQDIPKRCLK [TSN]', 2.41),
  ('QLAAGRHGDDLKNTKNEISELTRL [KRT71]', 4.52),
  ('QKSGLIRHQKIHSGEKPYKCSDCG [ZNF649]', 4.04),
  ('RAEPYPTSRFGSQCMQPNNIMGIE [NR2F2]', 2.81),
  ('WPKLCPCLRSGIGSSQALGPSPPL [MYCL]', 2.47),
  ('SPVRCGGPGDASPRGCGARRAGEG [WEE1]', 4.68),
  ('RNRKLKCTFSLTHPANRSCRETGS [SLC22A15]', 3.44),
  ('VFIDFSVYNANINLFCVLRLVVEF [PKD2L1]', 2.7),
  ('HRDSSQAIPITELTKSQVQDKPYK [ZNF8]', 5.1),
  ('QQKWTKPARAGSEVEWTEDLALDL [C2CD2L]', 4.48),
  ('VKISDFGLAKCNGLSHSHDLSMDG [RIPK4]', 3.23),
  ('SLGRHKRTHTGEKPYTCSVCGKSF [ZNF8]', 3.69),
  ('GGIRGRAMALTSSMNWGINLLISL [SLC2A12]', 2.54),
  ('EGLNSSLCSPGHERRGTPADTEEP [PSD2]', 5.53),
  ('STPLTATPGGRGDMKYGIYAVENE [VTI1B]', 4.42),
  ('NSDRMTHCGVLEFVADEGICYLPH [UFD1]', 2.68),
  ('QLNGILLHLESELAQTRAEGQRQA [KRT18]', 2.86),
  ('GLVDFRDVALALAALDGGRSLEEL [LPCAT4]', 3.17);

---

# protocolDescription: protein stability index of a GFP-peptide fusion (GPS, HEK-293T) (PSI 1-6); higher = more stable
# runConditions: treatment: DMSO; c terminus: a fixed tail appended
# binning rule on protein stability index: Low (below 3), Mid (3 to below 4), High (4 or more)

INSERT INTO results (sequencecontent, discretelabel) VALUES
  ('AHELGHSLGLSHSTDIGALMYPSY [MMP1]', 'Mid'),
  ('HDIIKHPMDLSTVKRKMDGREYPD [BRD3]', 'High'),
  ('ETVDLVLKLKNKLLQADREHLPVK [DENND6A]', 'Low'),
  ('EVSQHIKMRMGGRVDFEEFVELIG [CABP4]', 'Low'),
  ('TLSDWAAAVESVLHLGLPWRMLRP [PPEF2]', 'Mid'),
  ('QQYQEQLDKSTKLVETAIQSLDEP [TRIM63]', 'High'),
  ('LGCFSDTEPWGGTAIRPLKILPWS [PNLIPRP1]', 'Low'),
  ('EDNLEDDDVEMKNGITQGDKLRAL [CDC14A]', 'High'),
  ('SGADFHKKDKCGRTPLHYAAANCH [ANKRD44]', 'Mid'),
  ('KVPFSQEIKDLILPKISDPNFVKD [PI4K2A]', 'Mid'),
  ('QPPTTTVARSGTPAVENKQQIGDA [PLK2]', 'High'),
  ('SCTTRLCQEEQLRSHENKLRQLTA [PSD2]', 'Mid'),
  ('YKCSDCGKTFKQSSNLGQHQRIHT [ZNF232]', 'High'),
  ('MAVRPSLPESGLLSVLQIAQQDLA [FANCE]', 'Mid'),
  ('ALIICYNWLHRRLAGQFLEELRKF [MOG]', 'Low'),
  ('VDATLEHVQDPQNTVKVQVLYPDG [INTS4]', 'High'),
  ('AVPKFMKRIKVPDYKDRSVFGVPL [DLC1]', 'Low'),
  ('SVLSACDNLSDLVMVRWNKSLEWS [IQUB]', 'Low'),
  ('ELEGLIADPDEMRMQALLIRERIL [FEM1C]', 'Low'),
  ('AGGDVPHKTHQAPASASSLPGTGA [DYRK1B]', 'High'),
  ('LTFMNEQGEYPPGTSTWQFNFKFN [CNOT7]', 'Low'),
  ('PQKSLFFHHIPSTCQRVNGIKVQN [SLC19A2]', 'Low');

---

# protocolDescription: protein stability index of a GFP-peptide fusion (GPS, HEK-293T) (PSI 1-6); higher = more stable
# runConditions: treatment: DMSO; c terminus: a fixed tail appended
protein stability index by entry:
reportedMetric: protein stability index

INSERT INTO measurements (sequencecontent, valuereported) VALUES
  ('AELHAHGPAAFVDYFERNWEPRRD [ZSWIM9]', 3.89),
  ('LLRRDLGVGTSMEGASPLSERCQR [FANCE]', 4.01),
  ('QGEEPWVQVSPEFKDSAGKSPTGL [ZNF75A]', 4.87);

---

# protocolDescription: protein stability index of a GFP-peptide fusion (GPS, HEK-293T) (PSI 1-6); higher = more stable
# runConditions: treatment: MLN4924 1 uM, 8 h; c terminus: a fixed tail appended
protein stability index by entry:
reportedMetric: protein stability index

INSERT INTO assay_data (sequencecontent, valuereported) VALUES
  ('VGGGSGDEASAATPPSSRRVWSPP [ZBTB22]', 4.76),
  ('RLQGLEADCVRGPDGVCLSGGRGP [PBXIP1]', 4.24),
  ('RSQKHKERIRLLRQKREAAARKKY [C18orf25]', 4.36),
  ('QLGQRIYQYIQSRFYRSPEVLLGT [DYRK1B]', 2.53),
  ('MGKSASKQFHNEVLKAHNEYRQKH [GLIPR2]', 3.96),
  ('YYSVETVTLLVALKVRYRERITIL [PPP2CA]', 2.56),
  ('TLEQEQEALVNRLWKRMDKLEAEK [CCDC6]', 4.52),
  ('QQYQEQLDKSTKLVETAIQSLDEP [TRIM63]', 5.07),
  ('IEVFDPDANTWRLYGGMNYRRLGG [KLHL20]', 2.17),
  ('AGILSNLTCNNYKNKMMVCQVGGI [CTNNB1]', 2.11),
  ('CSQHWGGMASFRFPETTFISVTAY [TBX6]', 2.85),
  ('HKQLLLFHNAVSAYFAGNQKQLEQ [ARFIP2]', 2.17),
  ('EILPFLYLGSAYHASKCEFLANLH [DUSP5]', 2.92),
  ('ETVDLVLKLKNKLLQADREHLPVK [DENND6A]', 2.72),
  ('TAELVVIEDAAEPKEPAPPNGSAA [PALM]', 5.47),
  ('TIDAVPNAIPGRTDIELEIYGMEG [ZNF207]', 4),
  ('SFGFPRTVKHIDAALSEENTGKTY [MMP1]', 3.94),
  ('YGKDIVKACSLLDVAVHMPCLGHT [ZBED1]', 2.29),
  ('ISYLVLSMISMGLFSIAPLIYGSM [JAGN1]', 3.19),
  ('KLPSRRQPGLLHLQSCGDLHTFTP [FAM189A2]', 4.94),
  ('RRLLRRLSPSRGVAQCLRDLVAMQ [ZSWIM9]', 2.89),
  ('PQYAERLLSGAFKKRRLPPVHIHP [FOXJ1]', 2.9),
  ('KTAATRYRQKKRAEQEALTGECKE [ATF4]', 5.1),
  ('YHTGKTPFVCPECGQPCSQKSGLI [ZNF649]', 3.24),
  ('KRLKERSLDTLLEAVESRGGVPGG [SMAD6]', 4.72),
  ('LSFEQMTDAHVWNKSVTLYTVKDK [NLN]', 3.09),
  ('DQEAVCLICAISHTHRAHTVVPLD [TRIM39]', 2.19),
  ('QHNLRYSLENTLTESEARYSSQLS [KRT33B]', 4.11),
  ('YKCSDCGKTFKQSSNLGQHQRIHT [ZNF232]', 4.3),
  ('KMDMSVLEISGIIMSRVNAYQQGV [PHTF1]', 2.48),
  ('LGESKEHMESRMVTETEETQEKKA [SDE2]', 5.75);
